Listed here: items and their measured % activity.
# Study System: DRAK1(h) (Homo sapiens, UniProt Q9UEE5)
# Sequence (Q9UEE5 1-414): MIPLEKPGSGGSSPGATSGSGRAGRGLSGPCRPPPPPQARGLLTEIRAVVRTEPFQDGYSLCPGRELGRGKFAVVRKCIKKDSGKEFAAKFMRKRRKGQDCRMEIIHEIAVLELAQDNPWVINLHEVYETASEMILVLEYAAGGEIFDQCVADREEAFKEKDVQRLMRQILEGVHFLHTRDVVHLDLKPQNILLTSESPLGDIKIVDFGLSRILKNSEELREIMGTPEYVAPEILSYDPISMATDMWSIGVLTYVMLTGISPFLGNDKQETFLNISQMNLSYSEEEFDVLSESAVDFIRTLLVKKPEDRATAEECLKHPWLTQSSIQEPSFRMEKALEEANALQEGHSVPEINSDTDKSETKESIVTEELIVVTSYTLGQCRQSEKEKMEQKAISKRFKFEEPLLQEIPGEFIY
# Assay Summary: Kinase Profiling Assay
# Assay type: biochemical
# Stated Conditions: 100 μM
Answer in %, number only, no unit symbol.

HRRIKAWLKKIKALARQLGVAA [MMI-0500] | 8
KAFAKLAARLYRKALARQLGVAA [MMI-0400] | 14
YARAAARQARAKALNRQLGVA [MMI-0200] | 34

Please look up its % activity: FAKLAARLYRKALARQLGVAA [MMI-0300]
14

# credit: patent US20190134153A1
